Cited source for all entries: paper PMC6104945

B1: NHBA_(312-427) (Neisserial heparin binding antigen, peptide 20, residues M312-D427) [Neisseria meningitidis (strain 2996)] / Fab 5H2 (Fab derived from the vaccine-elicited human monoclonal antibody 5H2) [human] (parent complex)
chain 1: MLAGTAVYNGEVLHFHTENGRPYPTRGRFAAKVDFGSKSVDGIIDSGDDLHMGTQKFKAAIDGNGFKGTWTENGGGDVSGRFYGPAGEEVAGKYSYRPTDAEKGGFGVFAGKKEQD
chain 2: not shown
chain 3: EIVMTQTPSSLSASVGDRVTITCRASQSISNYLNWYQQKPGTAPKLLTYAASSLGSGVPSRFSGSGSGTDLTLTISSLRPEDFATYYCQQSYGSPTFGQGTKLEIRRTVAAPSVFIFPPSDEQLKSGTASVVCLLNNFYPREAKVQWKVDNALQSGNSQESVTEQDSKDSTYSLSSTLTLSKADYEKHKVYACEVTHQGLSSPVTKSFNRGEC

Variants of: B1
Test: SPR; Fab 5H2 captured on sensor chip, NHBA312-427 mutant injected; response read at end of injection (~48 s); read off a plot
endpoint: response

- chain 1 R28G, chain 1 K56A: ~5 RU
- chain 1 R28G: ~30 RU
- chain 1 R28A: ~2 RU
- chain 1 D49A, chain 1 T54A: ~42 RU
- chain 1 E11A, chain 1 E114A: ~51 RU
- chain 1 K56A: ~58 RU
- chain 1 R28A, chain 1 K56A: ~3 RU
